# Lookup of reported IC50 keyed by entry
Target: human P2X3 receptor (Homo sapiens (Human))
Test: P2X3 receptor inhibition, ATP-evoked Fluo-3 calcium fluorescence (FDSS 3000)
Settings: C6BU-1 cell transfected with human P2X3 receptor gene; ATP-evoked Fluo-3 fluorescence

compound="COc1ccccc1C1C(C(=O)C(C)C)=C(O)C(=O)N1c1ccc(-c2cccs2)cc1 (stereo not shown)" result_value="22 nM"
compound="CC(C)C(=O)C1=C(O)C(=O)N(c2ccc(-c3ccsc3)cc2)C1c1ccccc1OCCN(C)C (stereo not shown) [Compound I-157]" result_value="25 nM"
compound="COc1ccccc1C1c2c(C(C)(C)CO)n[nH]c2C(=O)N1c1ccc(N(C)C)cc1 (stereo not shown)" result_value="319 nM"
compound="COc1ccccc1C1C(C(=O)C(C)C)=C(O)C(=O)N1c1ccc(-c2ccco2)cc1 (stereo not shown)" result_value="73 nM"

Reported IC50, compound CC(C)C(=O)C1=C(O)C(=O)N(c2ccc(-c3ccoc3)cc2)C1c1cccnc1OCCO (stereo not shown) : ____
124 nM

Reported IC50, compound Cc1ccc(-c2ccc(N3C(=O)C(O)=C(C(=O)CC(C)C)C3c3ccccc3OC(C)C)cc2)s1 (stereo not shown) : ____
80 nM

Reported IC50, compound COc1ncccc1C1c2c(C(C)C)n[nH]c2C(=O)N1c1ccc(-c2ccsc2)cc1 (stereo not shown) : ____
57 nM

Reported IC50, compound CCOC(=O)C1c2c(C(C)C)n[nH]c2C(=O)N1c1ccc(-c2ccsc2)cc1 (stereo not shown) : ____
460 nM

Reported IC50, compound CC(C)(C)c1n[nH]c2c1C(c1ccccc1OCCO)N(c1ccc(-c3ccon3)cc1)C2=O (stereo not shown) : ____
31 nM

Reported IC50, compound CC(C)C(=O)C1=C(O)C(=O)N(c2ccc(-c3ccoc3)cc2)C1c1ccccc1OCCO (stereo not shown) : ____
40 nM

Reported IC50, compound CSc1ccccc1C1C(C(=O)C(C)C)=C(O)C(=O)N1c1ccc(-c2ccsc2)cc1 (stereo not shown) : ____
8 nM

Reported IC50, compound COc1ccccc1C1C(C(=O)c2ccco2)=C(O)C(=O)N1c1ccc(-c2ccsc2)cc1 (stereo not shown) : ____
157 nM

Reported IC50, compound COCCCOc1ncccc1C1C(C(=O)C(C)C)=C(O)C(=O)N1c1ccc(-c2ccc(C)o2)cc1 (stereo not shown) : ____
19 nM

Reported IC50, compound Cc1nc(-c2ccc(N3C(=O)c4[nH]nc(C(C)(C)C)c4C3c3ccccc3OCCO)cc2)no1 (stereo not shown) : ____
54 nM

Reported IC50, compound CNC(=O)COc1ccccc1C1C(C(=O)C(C)(C)C)=C(O)C(=O)N1c1ccc(-c2ccsc2)cc1 (stereo not shown) : ____
17 nM

Reported IC50, compound C[S+]([O-])CCOc1ccccc1C1C(C(=O)C(C)(C)C)=C(O)C(=O)N1c1ccc(-c2ccon2)cc1 (stereo not shown) : ____
219 nM

---

Molecular target: human P2X3 receptor (Homo sapiens (Human), UniProt P56373)
Sequence (P56373 whole entry): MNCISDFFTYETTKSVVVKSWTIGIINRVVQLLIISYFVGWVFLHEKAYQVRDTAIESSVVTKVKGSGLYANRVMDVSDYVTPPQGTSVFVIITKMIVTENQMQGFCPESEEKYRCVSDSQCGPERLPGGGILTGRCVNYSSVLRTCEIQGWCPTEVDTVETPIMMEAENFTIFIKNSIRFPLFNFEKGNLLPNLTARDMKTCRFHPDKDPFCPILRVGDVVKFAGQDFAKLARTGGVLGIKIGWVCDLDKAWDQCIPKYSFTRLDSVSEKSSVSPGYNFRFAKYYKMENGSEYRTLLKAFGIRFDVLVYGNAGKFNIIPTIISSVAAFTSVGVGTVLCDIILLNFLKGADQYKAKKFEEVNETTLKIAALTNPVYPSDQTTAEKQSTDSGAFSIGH
Assay: P2X3 receptor inhibition, ATP-evoked Fluo-3 calcium fluorescence (FDSS 3000)
Settings: C6BU-1 cell transfected with human P2X3 receptor gene; ATP-evoked Fluo-3 fluorescence
endpoint.name: IC50 (µM)
// note: answer is a bare numeric in µM

The following molecules have reported results that may help.
molecule="COc1ccccc1C1c2c(C(C)=O)n[nH]c2C(=O)N1c1ccc(-c2ccsc2)cc1 (centres unmarked) [II-188]" endpoint_name=IC50 result_value=0.156
molecule="CCNC(=O)c1ccc(C(=O)C2=C(O)C(=O)N(c3ccc(-c4ccon4)cc3)C2C(CC)CC)cc1 (centres unmarked) [Compound I-004]" endpoint_name=IC50 result_value=0.012
molecule="CC(=O)Nc1ccccc1C1c2c(C(C)C)n[nH]c2C(=O)N1c1ccc(-c2ccsc2)cc1 (centres unmarked) [II-085]" endpoint_name=IC50 result_value=0.023
molecule="CCC(CC)C1C(C(=O)c2ccc(C(=O)N(C)C)cc2)=C(O)C(=O)N1c1ccc(-c2ccon2)cc1 (centres unmarked) [Compound I-003]" endpoint_name=IC50 result_value=0.04
molecule="COc1ccccc1C1c2c(C(C)(C)C(=O)O)n[nH]c2C(=O)N1c1ccc(-c2ccsc2)cc1 (centres unmarked) [II-165]" endpoint_name=IC50 result_value=0.041
molecule="COCCN(C)C(=O)c1ncccc1C1C(C(=O)CC(C)C)=C(O)C(=O)N1c1ccc(-c2ccc(C)s2)cc1 (centres unmarked) [Compound I-582]" endpoint_name=IC50 result_value=0.359

Give human P2X3 receptor (Homo sapiens (Human), UniProt P56373) IC50 for COc1ccccc1C1C(C(=O)C(C)(C)C)=C(O)C(=O)N1c1ccc(-c2csc(C)c2)cc1 (centres unmarked) [Compound I-197]
0.036

Give human P2X3 receptor (Homo sapiens (Human), UniProt P56373) IC50 for COCCOc1ccccc1C1C(C(=O)C(C)(C)C)=C(O)C(=O)N1c1ccc(SC)cc1 (centres unmarked) [Compound I-130]
0.476
